Tested on: Indoplanorbis exustus
PROCEDURE_TEXT: Molluscicidal activity against Indoplanorbis exustus after 24 hrs
Assay type: functional
METRIC: LC50 (ppm)
Record the value in ppm, omitting the unit from your answer.

query: Record request: LC50 value, item `NC(=O)c1sc(N)c(C(N)=O)c1-c1ccc(Cl)cc1`
result: 0.604

query: Here is the next compound: `NC(=O)c1sc(N)c(C(N)=O)c1-c1ccc(F)cc1F`
result: 0.607

query: Also, `CC(=O)Nc1sc(C#N)c(-c2ccc(F)cc2F)c1C#N` please.
result: 0.763

query: Repeat with `NC(=O)c1sc(N)c(C(N)=O)c1-c1cc(C(F)(F)F)cc(C(F)(F)F)c1`
result: 0.751

query: Similarly, `CC(=O)Nc1sc(C#N)c(-c2ccc(Cl)cc2)c1C#N` ?
result: 0.651

query: // next record `CC(=O)Nc1sc(C#N)c(-c2cc(C(F)(F)F)cc(C(F)(F)F)c2)c1C#N`
result: 0.74
